System: Lolium multiflorum
Assay: Herbicidal action pre-emergence (greenhouse pot test)
Type: in vivo
Conditions: 320 g/ha, visual rating after 3 weeks vs untreated controls
measure-name: herbizide Wirkung in Prozent (%)

>>> reported_result("CCc1nc(C)nc(N[C@H]2c3cc(C)ccc3C[C@@H]2C)n1")
"≥ 80%"
>>> reported_result("Cc1cc(C)c2c(c1)C(Nc1nc(C)nc(C)n1)CCC2 (stereo not drawn)")
"≥ 80%"
>>> reported_result("Cc1ccc2c(c1)[C@H](Nc1nc(C)nc(C(C)C)n1)[C@@H](C)C2")
"≥ 80%"
>>> reported_result("Cc1ccc2c(c1)[C@H](Nc1nc(C)nc(C(C)(C)C)n1)[C@@H](C)C2")
"≥ 80%"
>>> reported_result("COCc1nc(C)nc(N[C@H]2c3cc(C)ccc3C[C@@H]2C)n1")
"≥ 80%"
>>> reported_result("Cc1ccc2c(c1)[C@H](Nc1nc(C)nc(C)n1)[C@@H](C)C2")
"≥ 80%"

----------
Listing: chromatographic logP of selected compounds
Test: logp (HCOOH) determination
Assay type: physicochemical
Details: hcooh
measure-name: chromatographic logP

>>> reported_result("CCc1ccc2c(c1)C(Nc1nc(C)nc(C)n1)CCO2 (stereo not shown) [I-238]")
1.51
>>> reported_result("CCOc1ccc2c(c1)C(Nc1nc(C)nc(C(F)F)n1)CCC2 (stereo not shown) [I-122]")
3.34
>>> reported_result("Cc1nc(NC2c3ccc(Cl)cc3CC2C)nc(C(F)F)n1 (stereo not shown) [I-137]")
3.58
>>> reported_result("Cc1ccc2c(c1)[C@H](Nc1nc(C)nc(C(C)(C)C)n1)[C@@H](C)C2 [I-51]")
3.56
>>> reported_result("CCc1ccc2c(c1)C(Nc1nc(C)nc(C(F)(F)F)n1)CCO2 (stereo not shown) [I-135]")
3.71
>>> reported_result("CCc1nc(C)nc(N[C@H]2c3cc(C)ccc3C[C@@H]2C)n1 [I-52]")
1.85
>>> reported_result("Cc1nc(NC2CC(C)(C)Oc3cc(Cl)c(F)cc32)nc(C(F)F)n1 (stereo not shown) [I-95]")
4.32
>>> reported_result("Cc1nc(N[C@@H]2CCOc3ccccc32)nc(C(F)(F)Cl)n1 [I-84]")
3.11
>>> reported_result("Cc1nc(N[C@H]2c3cc(Br)ccc3C[C@@H]2C)nc(C(F)F)n1 [I-235]")
3.55
>>> reported_result("Cc1nc(N[C@@H]2CCCc3ccccc32)nc(C(F)(F)Cl)n1 [I-67]")
3.9

----------
Assay: logp (HCOOH) determination
Type: physicochemical
Conditions: hcooh
Lab note: anything with chromatographic logP below 3 is marked Yes; values at 3 or higher are marked No.

>>> group_label("Cc1ccc2c(c1)[C@H](Nc1nc(C)nc(C(Cl)Cl)n1)[C@@H](C)C2")
"No"
>>> group_label("Cc1ccc2c(c1)[C@H](Nc1nc(C)nc(C(F)F)n1)[C@@H](C)C2")
"No"
>>> group_label("CCc1ccc2c(c1)C(Nc1nc(C)nc(C(F)F)n1)CCO2 (centres unmarked)")
"No"
>>> group_label("Cc1ccc2c(c1)[C@H](Nc1nc(C)nc(C)n1)[C@@H](C)C2")
"Yes"

----------
Test: logp (HCOOH) determination
Type: physicochemical
Settings: hcooh
Listing: chromatographic logP of selected compounds
measure-name: chromatographic logP

>>> reported_result("Cc1nc(NC2CCc3ccc(C(C)C)cc32)nc(C(F)F)n1 (centres unmarked) [I-100]")
3.79
>>> reported_result("Cc1nc(NC2CCc3c(C)cccc32)nc(C(F)(F)Cl)n1 (centres unmarked) [I-147]")
3.98
>>> reported_result("Cc1nc(NC2CCOc3ccc(C(C)C)cc32)nc(C(F)F)n1 (centres unmarked) [I-125]")
3.41
>>> reported_result("Cc1nc(NC2CC(C)(C)Oc3cc(Cl)c(F)cc32)nc(C(F)(F)Cl)n1 (centres unmarked) [I-82]")
4.32
>>> reported_result("Cc1ccc2c(c1)OC(C)(C)CC2Nc1nc(C)nc(C(F)F)n1 (centres unmarked) [I-130]")
3.3
>>> reported_result("CCc1nc(C)nc(N[C@@H]2CCCc3ccccc32)n1 [I-53]")
1.48
>>> reported_result("Cc1nc(N[C@@H]2CCCc3ccccc32)nc(C(Cl)(Cl)Cl)n1 [I-71]")
4.4
>>> reported_result("Cc1nc(N[C@@H]2CCc3ccccc32)nc(C(F)F)n1 [I-91]")
2.69
>>> reported_result("Cc1ccc2c(c1)[C@H](Nc1nc(C)nc(C(F)(F)Cl)n1)[C@@H](C)C2 [I-66]")
4.36
>>> reported_result("Cc1nc(N[C@H]2c3cc(Br)ccc3C[C@@H]2C)nc(C(F)(F)Cl)n1 [I-81]")
3.8
>>> reported_result("COc1ccc2c(c1)CCCC2Nc1nc(C)nc(C(F)F)n1 (centres unmarked) [I-159]")
2.9
>>> reported_result("Cc1nc(N[C@@H]2CCOc3c(F)cccc32)nc(C(F)(F)Cl)n1 [I-83]")
3.06
>>> reported_result("Cc1ccc2c(c1)[C@H](Nc1nc(C)nc(C(F)(F)F)n1)[C@@H](C)C2 [I-87]")
4.21
>>> reported_result("Cc1ccc2c(c1)[C@H](Nc1nc(C)nc(C(C)C)n1)[C@@H](C)C2 [I-50]")
2.16
